tested on: fibrin-induced microglia activation; test: Image-based assay of fibrin-induced microglia activation (HTS and dose response); format: cell-based, rat; conditions: Rattus norvegicus, Microglia, 48 h, Table 1; dose response 0.001-20 μM, triplicates, primary rat microglia, 48 h; read-out: Fibrin IC50
Counter-ions that a name gives are not always drawn.
For each record, write down the corresponding pIC50.
Note: pIC50 values are expressed as the negative base-10 logarithm of concentration in M.

Tell us which pIC50 value is on record for CC[C@]1(O)C[C@@H]2CN(CCc3c([nH]c4ccccc34)[C@@](C(=O)OC)(c3cc4c(cc3OC)N(C)[C@H]3[C@@](O)(C(=O)OC)[C@H](OC(C)=O)[C@]5(CC)C=CCN6CC[C@]43[C@@H]65)C2)C1 [Vinblastine sulfate, reference compound] 7.70

Tell us which pIC50 value is on record for CC(CN(C)C)CN1c2ccccc2CCc2ccccc21 (stereo not drawn) [Trimipramine maleate, reference compound] 5.15

Tell us which pIC50 value is on record for O=C(NC(Cc1cc(=O)[nH]c2ccccc12)C(=O)O)c1ccc(Cl)cc1 (stereo not drawn) [Rebamipide, reference compound] 5.70

###

For each record, write down the corresponding IC50.
system: LPS-induced microglia activation; experiment: Image-based assay of LPS-induced microglia activation (HTS and dose response); assay type: cell-based, rat; settings: LPS-induced microglia activation, dose response; read-out: LPS IC50 (uM) (Suppl. Table 7)
Reply with just the number (in µM).

Recall the reported IC50 of CCCOc1ccc2[nH]c(NC(=O)OC)nc2c1 [Oxybendazole, reference compound] when tested on LPS-induced microglia activation. 12

Recall the reported IC50 of CCC(=O)OCC(=O)[C@@]1(OC(=O)CC)[C@H](C)C[C@H]2[C@H]3[C@H]([C@@H](O)C[C@@]21C)[C@@]1(C)C=CC(=O)C=C1C[C@H]3Cl [Alclometazone dipropionate, reference compound] when tested on LPS-induced microglia activation. 2

Recall the reported IC50 of O=C1[O][Pt]2([NH][C@@H]3CCCC[C@H]3[NH]2)[O]C1=O [Oxaliplatin, reference compound] when tested on LPS-induced microglia activation. 15

Recall the reported IC50 of COc1cc2c(cc1O)CC[C@@H]1[C@@H]2CC[C@]2(C)[C@@H](O)CC[C@@H]12 [2-methoxyestradiol, reference compound] when tested on LPS-induced microglia activation. 5

###

For each record, write down the corresponding LPS % cell toxicity.
Structures can show the parent of a compound that is named as a salt.
Reply with just the number (in %).

Recall the reported LPS % cell toxicity of C[C@H]1COc2c(C3(N)CC3)c(F)cc3c(=O)c(C(=O)O)cn1c23 [Pazufloxacin Mesylate, Pazufloxacin] when tested on primary rat microglia. 0

Recall the reported LPS % cell toxicity of Cc1c(C)c2c(c(C)c1O)CCC(C)(CCCC(C)CCCC(C)CCCC(C)C)O2 (stereo not drawn) when tested on primary rat microglia. 0

Recall the reported LPS % cell toxicity of CCCN1CCCC[C@H]1C(=O)Nc1c(C)cccc1C [Ropivacaine, Ropivacaine Hydrochloride] when tested on primary rat microglia. 0

Recall the reported LPS % cell toxicity of COC(C)(C)CCC[C@H](C)C/C=C/C(C)=C/C(=O)OC(C)C [Methoprene (s)] when tested on primary rat microglia. 0

Recall the reported LPS % cell toxicity of CCCCC(O)c1ccccc1 (stereo not drawn) when tested on primary rat microglia. 0

Recall the reported LPS % cell toxicity of CCOc1ccccc1OC(c1ccccc1)C1CNCCO1.CS(=O)(=O)O (stereo not drawn) [Reboxetine Mesylate] when tested on primary rat microglia. 0

Recall the reported LPS % cell toxicity of CC(=O)[C@H]1CC[C@H]2[C@@H]3CC=C4C[C@@H](O)CC[C@]4(C)[C@H]3CC[C@]12C when tested on primary rat microglia. 0

Recall the reported LPS % cell toxicity of O=S(=O)([O-])CCCS(=O)(=O)[O-].[Na+].[Na+] [Eprodisate Disodium] when tested on primary rat microglia. 0

Recall the reported LPS % cell toxicity of Oc1ccc(Cl)cc1Cc1cc(Cl)ccc1O when tested on primary rat microglia. 0

Recall the reported LPS % cell toxicity of C=CCc1ccccc1OCC(O)CNC(C)C (stereo not drawn) [Alprenolol Hydrochloride, Alprenolol] when tested on primary rat microglia. 1

Recall the reported LPS % cell toxicity of CC1=C(C/C=C(\C)CCC[C@H](C)CCC[C@H](C)CCCC(C)C)C(=O)c2ccccc2C1=O when tested on primary rat microglia. 2

Recall the reported LPS % cell toxicity of CC(=O)[C@@]1(O)CC[C@H]2[C@@H]3C=C(Cl)C4=CC(=O)[C@@H]5C[C@@H]5[C@]4(C)[C@H]3CC[C@@]21C [Cyproterone, reference compound] when tested on primary rat microglia. 0

Recall the reported LPS % cell toxicity of COc1cc2c(cc1O)CC[C@@H]1[C@@H]2CC[C@]2(C)[C@@H](O)CC[C@@H]12 [2-methoxyestradiol, reference compound] when tested on primary rat microglia. 2

Recall the reported LPS % cell toxicity of COc1ccc2nc3cc(Cl)ccc3c(Nc3cc(CN4CCCC4)c(O)c(CN4CCCC4)c3)c2n1.O=P(O)(O)O.O=P(O)(O)O.O=P(O)(O)O.O=P(O)(O)O [Pyronaridine Tetraphosphate] when tested on primary rat microglia. 0

Recall the reported LPS % cell toxicity of CC(=O)CC(c1ccc([N+](=O)[O-])cc1)c1c(O)c2ccccc2oc1=O (stereo not drawn) when tested on primary rat microglia. 0

Recall the reported LPS % cell toxicity of N[C@@H]1C[C@H]1c1ccccc1.N[C@H]1C[C@@H]1c1ccccc1.O=S(=O)(O)O [Tranylcypromine Sulfate] when tested on primary rat microglia. 0

Recall the reported LPS % cell toxicity of CCCCCCCCCC(=O)N[C@@H](Cc1c[nH]c2ccccc12)C(=O)N[C@@H](CC(N)=O)C(=O)N[C@@H](CC(=O)O)C(=O)N[C@@H]1C(=O)NCC(=O)N[C@@H](CCCN)C(=O)N[C@@H](CC(=O)O)C(=O)N[C@H](C)C(=O)N[C@@H](CC(=O)O)C(=O)NCC(=O)N[C@H](CO)C(=O)N[C@@H]([C@H](C)CC(=O)O)C(=O)N[C@@H](CC(=O)c2ccccc2N)C(=O)O[C@@H]1C when tested on primary rat microglia. 0

Recall the reported LPS % cell toxicity of [O-][n+]1ccccc1[S-].[O-][n+]1ccccc1[S-].[Zn+2] when tested on primary rat microglia. 87

Recall the reported LPS % cell toxicity of N[C@@H](CC(=O)O)C(=O)O when tested on primary rat microglia. 1

Recall the reported LPS % cell toxicity of CCCC(C(=O)OCCN(CC)CC)(c1ccccc1)c1ccccc1.Cl when tested on primary rat microglia. 0

Recall the reported LPS % cell toxicity of O=C1Cc2cc(CCN3CCN(c4nsc5ccccc45)CC3)c(Cl)cc2N1 [Ziprasidone Mesylate, Ziprasidone] when tested on primary rat microglia. 1

Recall the reported LPS % cell toxicity of CN1CCCC(n2nc(Cc3ccc(Cl)cc3)c3ccccc3c2=O)CC1 (stereo not drawn) [Azelastine, Azelastine Hydrochloride] when tested on primary rat microglia. 0

Recall the reported LPS % cell toxicity of Br.CN1[C@H]2C[C@H](OC(=O)[C@H](CO)c3ccccc3)C[C@@H]1[C@@H](O)C2 [Anisodamine Hydrobromide] when tested on primary rat microglia. 0

Recall the reported LPS % cell toxicity of NC[C@@H]1O[C@H](O[C@H]2[C@@H](O)[C@H](O[C@@H]3[C@@H](O)[C@H](N)C[C@H](N)[C@H]3O[C@H]3O[C@H](CN)[C@@H](O)[C@H](O)[C@H]3N)O[C@@H]2CO)[C@H](N)[C@@H](O)[C@@H]1O.O=S(=O)(O)O [Neomycin Sulfate] when tested on primary rat microglia. 0

Recall the reported LPS % cell toxicity of CN(C)CCCN1c2ccccc2Sc2ccc(Cl)cc21.Cl when tested on primary rat microglia. 1

Recall the reported LPS % cell toxicity of NNC(=O)c1ccncc1.Nc1ccc(C(=O)O)c(O)c1 when tested on primary rat microglia. 0

Recall the reported LPS % cell toxicity of CCCc1nn(C)c2c(=O)[nH]c(-c3cc(S(=O)(=O)N4CCN(C)CC4)ccc3OCC)nc12 [Sildenafil, Sildenafil Citrate] when tested on primary rat microglia. 0
